Hi there, I'd appreciate the recorded pIC50 for every entry that follows.
- system name: Bromodomain-containing protein 4 (Homo sapiens, UniProt O60885)
- experiment notes: Inhibition of BRD4 (unknown origin) preincubated for 15 mins followed by substrate addition and measured after 1 hr by AlphaScreen assay relative to control
Numbers only, as −log10 of the molar value.

CCS(=O)(=O)c1ccc(Oc2cc(-c3c(C)noc3C)ccc2F)c(-c2cn(C)c(=O)c3cncn23)c1 : 6.82
CCS(=O)(=O)c1ccc(Oc2cc(-c3c(C)noc3C)ccc2OC)c(-c2cn(C)c(=O)c3cncn23)c1 : 7.25
CCS(=O)(=O)c1ccc(Oc2cccc(-c3c(C)noc3C)c2)c(-c2cn(C)c(=O)c3cncn23)c1 : 6.36

Parameters: items (list). Returns: pIC50 for each item.
1. Cc1sc2c(c1C)C(c1ccc(Cl)cc1)=N[C@@H](CC(=O)C(C)(C)C)c1nnc(C)n1-2
2. CCS(=O)(=O)c1ccc(Oc2ccc(C)c(-c3c(C)noc3C)c2)c(-c2cn(C)c(=O)c3cncn23)c1

Response given:
[7.06, 6.60]

Parameters: items (list). Returns: pIC50 for each item.
1. CCS(=O)(=O)c1ccc(Oc2cc(-c3c(C)noc3C)ccc2C)c(-c2cn(C)c(=O)c3cncn23)c1
2. CCS(=O)(=O)Nc1ccc(Oc2ccccc2F)c(-c2cn(C)c(=O)c3cncn23)c1

Response given:
1. 6.58
2. 7.46

---

- system name: Bromodomain-containing protein 4 (Homo sapiens, UniProt O60885)
- experiment notes: Inhibition of BRD4 (unknown origin) at 1 uM preincubated for 15 mins followed by substrate addition and measured after 1 hr by AlphaScreen assay relative to control
- condition description: time 75.0 min
recorded metric: inhibition (%)
One number for each entry, in %.

Example molecules with recorded inhibition:
CCS(=O)(=O)c1ccc(Oc2cc(-c3c(C)noc3C)ccc2F)c(-c2cn(C)c(=O)c3cncn23)c1 : 99.5
CCS(=O)(=O)c1ccc(Oc2ccc(C)c(-c3c(C)noc3C)c2)c(-c2cn(C)c(=O)c3cncn23)c1 : 96.5
CCS(=O)(=O)c1ccc(Oc2cccc(-c3c(C)noc3C)c2)c(-c2cn(C)c(=O)c3cncn23)c1 : 93.2

Parameters: items (list). Returns: inhibition for each item.
1. Cc1sc2c(c1C)C(c1ccc(Cl)cc1)=N[C@@H](CC(=O)C(C)(C)C)c1nnc(C)n1-2
2. CCS(=O)(=O)c1ccc(Oc2cc(-c3c(C)noc3C)ccc2Cl)c(-c2cn(C)c(=O)c3cncn23)c1

Response given:
1. 99.5
2. 86.3
